Data provenance is patent US20240316079A1.

System: C3A
assay-explanation: In vitro proliferation assay, liver cancer cell line C3A
Assay type: cell-based
test-parameters: Homo sapiens, 96 hours of drug exposure, AKR1C3 protein high, read-out: 3424 IC50
observable: IC50 (nM)
Answer format: numeric, nM implied, no suffix.

input: Can you look up the measured IC50 of C[C@H](OP(=O)(N1CC1)N1CC1)c1ccc([N+](=O)[O-])c(Oc2cccc(C(=O)N(C)C)c2)c1 [Compound 3424] for me?
output: 5

---

System: NCI-H1792
assay-explanation: In vitro proliferation assay, NSCLC cell line NCI-H1792
Type: cell-based
test-parameters: Homo sapiens, 72 hours of drug exposure, read-out: 3424 IC50
observable: pIC50
// pIC50 is dimensionless: -log10 of concentration (M)

input: Can you look up the measured pIC50 of C[C@H](OP(=O)(N1CC1)N1CC1)c1ccc([N+](=O)[O-])c(Oc2cccc(C(=O)N(C)C)c2)c1 for me?
output: 8.35
